Tested on: NOMO1
Assay Name: cell viability relative to DMSO control; higher = less cytotoxic
Recorded Conditions: RPMI 5 mM glucose + 10% FBS; 48 h; 1.71 µM
Metric Name: cell viability (%)
Reply with just the number (in %).

Incoming: What value of cell viability has been reported for the following molecule? CN1C(=O)\C(=C/C2=C1N=C(NC3CCOCC3)N=C2)OC4=C(F)C=C(F)C=C4
Outgoing: 95.2

Incoming: Now consider COC(=O)[C@@H]1CC2=CC(=O)CC[C@]2(C)[C@@]23O[C@@H]2C[C@@]2(C)[C@@H](CC[C@@]24CCC(=O)O4)[C@H]13 and answer again.
Outgoing: 105

Incoming: Now consider CN1CCN(CC1)C/2=N/C3=CC=CC=C3NC4=C2C=C(C)S4 and answer again.
Outgoing: 83.9

Incoming: Now consider COc1cc([S+](C)(=O)[O-])ccc1Nc1nc2ccc(-c3ccc(NC(=O)[C@H](C)c4ccc(F)cc4)cc3)cn2n1 and answer again.
Outgoing: 92.4

Incoming: Now consider Cc1n[nH]c2ccc(-c3cncc(OC[C@@H](N)Cc4c[nH]c5ccccc45)c3)cc12 and answer again.
Outgoing: 33.2

Incoming: Now consider CCOC\1=C(/C(=O)NC2=CC=C(OC3=C(Cl)C(=NC=C3)N)C(=C2)F)C(=O)N(\C=C1)C4=CC=C(F)C=C4 and answer again.
Outgoing: 88.7

Incoming: Now consider CC1(C)NC(=O)N(c2ccc([N+](=O)[O-])c(C(F)(F)F)c2)C1=O and answer again.
Outgoing: 97.8

Incoming: Now consider COc1ccccc1OCC(O)CN1CCN(CC(=O)Nc2c(C)cccc2C)CC1 (stereo not drawn) and answer again.
Outgoing: 136

###

System: P12-Ichikawa
Assay Name: cell viability relative to DMSO control; higher = less cytotoxic
Recorded Conditions: RPMI 5 mM glucose + 10% dialyzed FBS; 48 h; 0.569 µM
Metric Name: cell viability (%)
Reply with just the number (in %).

Incoming: What value of cell viability has been reported for the following compound? CN(C)Cc1cccc(N/C(=C2\C(=O)Nc3cc(C(=O)N(C)C)ccc32)c2ccccc2)c1
Outgoing: 114

Incoming: Now consider N#C[C@@H]1C[C@@H]2C[C@@H]2N1C(=O)[C@@H](N)C12CC3CC(CC(O)(C3)C1)C2 and answer again.
Outgoing: 121

Incoming: Now consider NNC(=O)c1ccncc1 and answer again.
Outgoing: 118

Incoming: Now consider COc1cc([C@@H]2c3cc4c(cc3[C@H](O)[C@H]3COC(=O)[C@H]23)OCO4)cc(OC)c1OC and answer again.
Outgoing: 7.96

Incoming: Now consider CC1(C)NC(=O)N(c2ccc([N+](=O)[O-])c(C(F)(F)F)c2)C1=O and answer again.
Outgoing: 78.4

Incoming: Now consider CC(=O)OCC(CCn1cnc2cnc(N)nc21)COC(C)=O and answer again.
Outgoing: 97

Incoming: Now consider C[C@]12CCC(=O)C(O)=C1CC[C@@H]1[C@@H]2CC[C@]2(C)C(=O)CC[C@@H]12 and answer again.
Outgoing: 130

###

Test system: P12-Ichikawa
Assay Name: cell viability relative to DMSO control; higher = less cytotoxic
Recorded Conditions: RPMI 5 mM glucose + 10% FBS; 48 h; 0.000781 µM
Metric Name: cell viability (%)
Reply with just the number (in %).

Incoming: What value of cell viability has been reported for the following compound? CCC1=C2CN3C(=O)\C4=C(/C=C3/C2=NC5=CC=C(O)C=C15)[C@@](O)(CC)C(=O)OC4
Outgoing: 93.6

Incoming: Now consider NC(=O)[C@@H](CCC(F)(F)F)N(Cc1ccc(-c2ncon2)cc1F)[S+](=O)([O-])c1ccc(Cl)cc1 and answer again.
Outgoing: 92.4

Incoming: Now consider CNC(=O)c1ccccc1Sc1ccc2c(/C=C/c3ccccn3)n[nH]c2c1 and answer again.
Outgoing: 117

Incoming: Now consider NCC/1=C/NC(=S)N1[C@H]2CCC3=C(F)C=C(F)C=C3C2 and answer again.
Outgoing: 134

Incoming: Now consider C=C1C(=O)O[C@@H]2[C@H]3O[C@]3(C)CC/C=C(\C)CC[C@@H]12 and answer again.
Outgoing: 103

Incoming: Now consider CNC(=O)c1cc(Oc2ccc(NC(=O)Nc3ccc(Cl)c(C(F)(F)F)c3)c(F)c2)ccn1 and answer again.
Outgoing: 85.4

Incoming: Now consider CC(=O)O[C@@]12CO[C@@H]1C[C@H](O)[C@]3(C)[C@@H]2[C@H](OC(=O)C4=CC=CC=C4)[C@]5(O)C[C@H](O)/C(=C(/[C@@H](O)C3=O)C5(C)C)C and answer again.
Outgoing: 100

Incoming: Now consider COC(=O)[C@@H]1CC2=CC(=O)CC[C@]2(C)[C@@]23O[C@@H]2C[C@@]2(C)[C@@H](CC[C@@]24CCC(=O)O4)[C@H]13 and answer again.
Outgoing: 107
